# System: D(1A) dopamine receptor (Homo sapiens)
# Sequence (P21728 whole entry): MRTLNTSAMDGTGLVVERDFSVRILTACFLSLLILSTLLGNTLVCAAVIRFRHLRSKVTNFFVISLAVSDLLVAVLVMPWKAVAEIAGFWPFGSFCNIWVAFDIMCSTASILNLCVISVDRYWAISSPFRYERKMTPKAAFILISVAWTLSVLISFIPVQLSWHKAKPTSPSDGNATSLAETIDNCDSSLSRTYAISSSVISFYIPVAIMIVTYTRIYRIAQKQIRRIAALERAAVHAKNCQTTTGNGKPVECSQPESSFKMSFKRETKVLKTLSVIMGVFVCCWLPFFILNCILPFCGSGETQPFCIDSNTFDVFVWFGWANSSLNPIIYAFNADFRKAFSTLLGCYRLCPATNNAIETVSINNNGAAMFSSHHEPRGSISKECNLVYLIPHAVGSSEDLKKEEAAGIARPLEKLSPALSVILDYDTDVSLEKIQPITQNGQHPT
# Protocol Details: Displacement of [3H] SCH23390 from D1 receptor (unknown origin)
Property: Ki (nM)
One number for each entry, in nM.

In [3]: df
Out[3]:
                           smiles_structure                                  system  property  readout_number
0  COc1ccccc1N1CCN(CCCNC(=O)NN(Cc2ccc(F)cc2)c2ccccc2)CC1  D(1A) dopamine receptor (Homo sapiens)        Ki             360

Can you look up Ki on D(1A) dopamine receptor (Homo sapiens) for COc1ccccc1N1CCN(CCCNC(=O)NN(Cc2ccccc2)c2ccccc2)CC1 ?
200
